Taken from paper PMC5540273.

// reported %Inh for each item listed
# System: IKK-epsilon
# Construct: gene IKBKE
# testConditions: concentration: 1 μM, replicates: in singlicate; n = 1;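 note: KINOMEscan kinase panel screen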
propertyName: %Inh (%)

COc1cc(Nc2nccc(N3CCC(NC(=O)C(C)c4ccc(Cl)cc4)C3)n2)cc(OC)c1OC (centres unmarked) = 23
Cc1ccc(Oc2ccc(Nc3ncnc4cc[nH]c34)cc2C)cn1 = 50
COc1cc2ncn(-c3cc(OCc4ccncc4)c(C(N)=O)s3)c2cc1OC = 26
COc1cc(OC)cc(-c2cc3cnc(N)nc3nc2NC(=O)NC(C)(C)C)c1 = 7
COc1cc2nccc(Nc3cccc(Oc4ccccc4)c3)c2cc1OC.Cl = 0
O=c1cc(N2CCOCC2)nc2n(Cc3ccc(F)c(Cl)c3)ccn12 = 0
Cl.NS(=O)(=O)c1cccc(Nc2cc(-c3ccc(F)cc3)n[nH]2)c1 = 8
COc1ccc(-c2coc3ccc(-c4nnc(SCc5cccc(C#N)c5)o4)cc23)cc1 = 0
Cc1nnc(-c2ccc(C)c(-c3ccc(C(=O)O)cc3)c2)o1 = 1
COc1cccc(-n2cnc3c(N)ncnc32)c1 = 0
COc1ccc(CNC(=O)NC2CCN(c3ccnc(Nc4ccc(F)cc4)n3)C2)cc1 (centres unmarked) = 30
Cc1nnc(-c2ccc3ncn(-c4ccc(S(C)=O)cc4)c3c2)o1 (centres unmarked) = 0
COc1cc(Nc2ccnc3ccc(C(F)(F)F)cc23)cc(OC)c1OC = 0
CCC(=O)c1c(-c2ccccc2)c2cc(Cl)ccc2c(=O)n1Cc1cc(C(=O)NC2CC2)n(C)n1 = 0

----------
# Test system: ASK2
# Construct: gene MAP3K6
# testConditions: concentration: 1 μM, replicates: in singlicate; n = 1
// 0 (no) strictly below 2% in %Inh; 1 (yes) otherwise

COc1cc(Nc2nccc(N3CCC(NC(=O)C(C)c4ccc(Cl)cc4)C3)n2)cc(OC)c1OC (centres unmarked) [GSK1379757] = 0 (no)
Cc1c(Cn2c(C)nn3c(=O)cc(N4CCO[C@H](C)C4)nc23)cccc1C(F)(F)F [GSK2373690] = 1 (yes)
Nc1nc(-c2ccccc2F)c(-c2ccnc3ccccc23)s1 [GW560459] = 0 (no)
CCS(=O)c1ccc(-c2coc3ccc(-c4nnc(C)o4)cc23)cc1 (centres unmarked) = 0 (no)
CCc1nc(-c2cccc(C)c2)c(-c2ccncc2)s1 = 0 (no)
CC(C)(C)c1ccc(C(=O)Nc2cn3cc(-c4ccccc4)ccc3n2)cc1 = 0 (no)
Cc1cccc(-c2nc(Nc3ccc4c(cnn4C)c3)c3ccccc3n2)n1 [GW876731] = 1 (yes)
Nc1n[nH]c2ncc(-c3ccccc3)cc12 [SB-517081] = 0 (no)
CCCNC(=O)Nc1ccc(Oc2ncnc3ccn(C)c23)cc1 = 0 (no)
COc1cccc(-n2cnc3c(N)ncnc32)c1 [SKF-97416] = 1 (yes)
Nc1nc(N)c2nc(-c3ccccc3)[nH]c2n1 [SKF-12778] = 1 (yes)
C[C@@H]1CC[C@H](C(=O)NC2CCCCC2)CN1c1cc(-c2ccc3c(N)n[nH]c3c2)nc(N)n1 [GSK2291363] = 1 (yes)

----------
# Tested on: NLK
# testConditions: concentration: 1 μM, replicates: in singlicate; n = 1
// n strictly below 8% in %Inh; y otherwise

Cc1ccc(Oc2ccc(Nc3ncnc4cc[nH]c34)cc2C)cn1 = n
CCS(=O)c1ccc(-c2coc3ccc(-c4nnc(C)o4)cc23)cc1 (stereo not drawn) = n
Cc1c(Cn2c(C)nn3c(=O)cc(N4CCO[C@H](C)C4)nc23)cccc1C(F)(F)F = y
COc1ccc(-n2cnc3c(N)ncnc32)cc1 = n
COc1cc(Nc2nccc(N3CCC(NC(=O)C4COc5ccccc5O4)C3)n2)cc(OC)c1OC (stereo not drawn) = n
Cc1nn2c(=O)cc(N3CCOCC3)nc2n1Cc1cccc(Cl)c1Cl = n
COc1cccc(C2=C(N(C)c3ccccc3)C(=O)NC2=O)c1 = y
COc1ccc(-c2cc3c(C)nc(N)nc3n([C@H]3CC[C@H](O)CC3)c2=O)cn1 = y
